system: Radical scavenging activity; assay: Antioxidant activity assessed as DPPH free radical scavenging activity after 15 mins by spectrophotometric analysis; format: functional
readout.kind: IC50 (µg/mL)

                    structure_smiles_string            target_under_test  units_text  reported_measurement
0  COc1cc(OC)c(OC)cc1/C=C/C(=O)c1cccc(C(F)(F)F)c1  Radical scavenging activity       µg/mL                 5.153
1  COc1cc(OC)c(OC)cc1/C=C/C(=O)c1cc(OC(C)=O)ccc1OC(C)=O  Radical scavenging activity       µg/mL                  4.65
2   COc1cc(OC)c(OC)cc1/C=C/C(=O)c1ccc(O)cc1  Radical scavenging activity       µg/mL                 4.293
3   COc1cc(OC)c(OC)cc1/C=C/C(=O)c1ccc(F)cc1  Radical scavenging activity       µg/mL                  4.71
4  COc1cc(OC)c(OC)cc1/C=C/C(=O)c1ccc([N+](=O)[O-])cc1  Radical scavenging activity       µg/mL                 4.754
5  COc1cc(OC)c(-c2cc(=O)c3cc(Cl)ccc3o2)cc1OC  Radical scavenging activity       µg/mL                 4.973

====

Each entry below lists one item and its recorded IC50 value.
test system: Radical scavenging activity; test: Antioxidant activity assessed as DPPH free radical scavenging activity after 15 mins by spectrophotometric analysis; type: functional
readout.kind: IC50 (µg/mL)

                     structure_smiles_string  reported_measurement
 0  COc1cc(C(=O)/C=C/c2cc(OC)c(OC)cc2OC)ccc1O                  4.31
 1  COc1cc(OC)c(C(=O)/C=C/c2cc(OC)c(OC)cc2OC)c(OC)c1                 5.023
 2  COc1ccc(C(=O)/C=C/c2cc(OC)c(OC)cc2OC)cc1                 4.394
 3  COc1cc(OC)c(-c2oc3ccc(O)cc3c(=O)c2O)cc1OC                 4.496
 4  COc1cc(OC)c(OC)cc1/C=C/C(=O)c1cc(Cl)ccc1O                 5.073
 5      COc1cc(OC)c(OC)cc1/C=C/C(=O)c1ccccc1                 4.506
 6  COc1cc(OC)c(OC)cc1/C=C/C(=O)c1cc(OCc2ccccc2)cc(OCc2ccccc2)c1                 5.002
 7  COc1cc(OC)c(OC)cc1/C=C/C(=O)c1ccc(Br)cc1                 4.318
 8   COc1cc(OC)c(OC)cc1/C=C/C(=O)c1ccc(C)cc1                 4.325
 9  COc1cc(OC)c(OC)cc1/C=C/C(=O)c1ccc(Cl)c([N+](=O)[O-])c1                 4.472
10  COc1cc(OC)c(-c2oc3ccc(Cl)cc3c(=O)c2O)cc1OC                  4.68
11  COc1cc(OC)c(OC)cc1/C=C/C(=O)c1ccc(O)cc1O                 4.368
